tested on: STK39; settings: concentration: 1 μM, replicates: in singlicate; n = 1;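 further: KINOMEscan kinase panel screen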

compound | %Inh
Clc1ccc(-c2cc(-c3c[nH]nc3-c3ccccn3)ccn2)cc1 | 1%
CC(C)(C)c1ccc(-n2cnc3c(N)ncnc32)cc1 | 0%
C[C@H]1CC[C@@H](C(=O)Nc2ccccc2)CN1c1cc(-c2ccc3c(N)n[nH]c3c2)nc(N)n1 | 0%
COc1cc2ncnc(Nc3ccc(OCc4ccccc4Br)c(Cl)c3)c2cc1OC.Cl | 7%
Fc1ccc(Nc2nccc(-c3c(-c4ccc(Cl)cc4)nn4ncccc34)n2)cc1F | 22%
Cc1ccc(C)c(NC(=O)NCCNc2ccnc(Nc3ccc(F)cc3)n2)c1 | 0%
Cn1cc(-c2ccc3c(c2)CCN3C(=O)Cc2cccc(C(F)(F)F)c2)c2c(N)ncnc21 | 1%
Cn1ccc2ncnc(Oc3ccc(NC(=O)Nc4cccnc4)c(Cl)c3)c21 | 0%
Nc1nc(-c2ccc3c(N)n[nH]c3c2)cc(N2CCCCC2)n1 | 0%
O=c1cc(N2CCOCC2)nc2n(Cc3cccc(Cl)c3)ccn12 | 11%
Nc1n[nH]c2nnc(-c3ccccc3)cc12 | 13%
CNc1nccc(-c2c(-c3ccc(F)cc3)ncn2CCCN2CCOCC2)n1 | 8%
COc1ccc(Nc2nccc(N3CCC(NC(=O)c4cccc(NC(C)=O)c4)C3)n2)cc1 (centres unmarked) | 15%
O=C(Nc1n[nH]c2nc(-c3ccco3)c(Br)cc12)c1ccc(CN2CCCC2)cc1.O=C(O)[C@H](O)[C@@H](O)C(=O)O | 0%
FC(F)(F)c1ccc(-c2cc(-c3c[nH]nc3-c3ccccn3)ccn2)cc1 | 0%
Fc1cccc(COc2ccc(Nc3ncnc4cc[nH]c34)cc2Cl)c1 | 9%
FC(F)(F)c1cc(Nc2nccc(-c3c(-c4ccc(Cl)cc4)nn4ncccc34)n2)ccc1Cl | 0%
Cc1ccc(NC(=O)c2cccc(C#N)c2)cc1-c1ccc(C(=O)Nc2ccncc2)cc1 | 16%
Fc1cccc(COc2ccc(Nc3ncnc4nn5ccccc5c34)cc2Cl)c1 | 0%
COc1ccc(NC(=O)c2ccc(-c3cc(-c4nnc(C)o4)ccc3C)cc2)cc1 | 21%
Cl.O=S(=O)(c1cccc(F)c1)c1ccc(Nc2ncnc3cc(Br)sc23)cc1Cl | 1%
CS(=O)(=O)CCNCc1ccc(-c2ccc3ncnc(Nc4ccc(OCc5ccccc5)c(Cl)c4)c3c2)o1.Cl | 5%
Nc1nc(-c2cccnc2)c(-c2ccnc3ccccc23)s1 | 0%
c1ccc(-c2ccc3c(-c4ccnc(Nc5ccc6c(c5)OCCO6)n4)cnn3n2)cc1 | 22%
O=C(Nc1ccccc1)Nc1ccc(Oc2ccc3nccn3n2)cc1 | 0%
Cl.Cn1ccc(-c2cccc(Nc3ccnc4cc(-c5nccs5)ccc34)c2)n1 | 6%
Fc1cccc(COc2ccc(Nc3ncnc4sc(-c5ccc[nH]5)cc34)cc2Cl)c1 | 9%
COc1cc2c(Nc3cccc(NC(=O)c4ccccc4)c3)ncnc2cc1OCCCN1CCOCC1 | 0%
Cc1ccc(O)cc1Nc1cc(C(F)(F)F)nc2ccc(-c3ccncc3)cc12 | 0%
CC(C)(C)OC(=O)NC1CCCN(c2cc(-c3ccc4c(N)n[nH]c4c3)nc(N)n2)C1 (centres unmarked) | 0%
CCc1nc(-c2cccc(C)c2)c(-c2ccnc(NC(=O)c3ccccc3)c2)s1 | 0%
O=C(Nc1ccccc1F)NC1CCN(c2ccnc(Nc3ccc(F)cc3)n2)C1 (centres unmarked) | 29%
FC(F)(F)c1ccc(-c2nn3ncccc3c2-c2ccnc(Nc3cccc(C(F)(F)F)c3)n2)cc1 | 0%
CCCc1ccc(S(=O)(=O)NC2CCN(c3ccnc(Nc4ccc(OC)cc4)n3)C2)cc1 (centres unmarked) | 17%
CCC(CC)(CC)n1cnc2c(N)ncnc21 | 0%
